Target: hERG (Homo sapiens, UniProt Q12809)
Sequence (Q12809 whole entry): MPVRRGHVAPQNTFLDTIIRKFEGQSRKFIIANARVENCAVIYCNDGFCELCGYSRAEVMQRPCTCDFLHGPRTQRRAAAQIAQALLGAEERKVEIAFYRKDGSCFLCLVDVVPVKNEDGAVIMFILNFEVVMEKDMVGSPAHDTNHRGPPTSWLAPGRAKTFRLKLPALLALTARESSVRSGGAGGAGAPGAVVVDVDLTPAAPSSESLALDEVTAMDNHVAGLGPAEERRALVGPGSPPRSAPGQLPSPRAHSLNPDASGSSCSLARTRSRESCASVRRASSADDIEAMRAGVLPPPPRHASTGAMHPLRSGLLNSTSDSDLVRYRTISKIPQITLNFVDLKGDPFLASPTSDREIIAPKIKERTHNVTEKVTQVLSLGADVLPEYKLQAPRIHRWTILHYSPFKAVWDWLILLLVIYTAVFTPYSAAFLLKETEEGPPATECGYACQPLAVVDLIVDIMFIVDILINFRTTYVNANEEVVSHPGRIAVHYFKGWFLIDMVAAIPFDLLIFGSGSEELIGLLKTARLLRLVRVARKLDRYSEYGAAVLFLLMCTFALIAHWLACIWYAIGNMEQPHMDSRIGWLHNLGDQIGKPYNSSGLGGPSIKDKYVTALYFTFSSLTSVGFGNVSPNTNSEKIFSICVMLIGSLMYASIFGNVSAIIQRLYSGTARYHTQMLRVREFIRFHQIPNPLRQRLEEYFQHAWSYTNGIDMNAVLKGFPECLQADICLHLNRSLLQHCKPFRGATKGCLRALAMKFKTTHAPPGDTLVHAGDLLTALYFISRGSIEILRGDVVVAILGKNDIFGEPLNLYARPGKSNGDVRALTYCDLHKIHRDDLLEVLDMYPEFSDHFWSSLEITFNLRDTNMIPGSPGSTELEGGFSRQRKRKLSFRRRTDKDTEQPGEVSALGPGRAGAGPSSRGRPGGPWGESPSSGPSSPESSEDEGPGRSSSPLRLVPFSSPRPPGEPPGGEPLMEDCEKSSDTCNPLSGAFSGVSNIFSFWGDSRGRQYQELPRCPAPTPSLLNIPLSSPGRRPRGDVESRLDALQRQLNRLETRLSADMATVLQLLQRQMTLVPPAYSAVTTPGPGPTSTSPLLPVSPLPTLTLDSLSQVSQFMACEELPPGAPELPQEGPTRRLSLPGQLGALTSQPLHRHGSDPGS
Assay: Patch clamp selectivity, hERG
Conditions: Voltage, Tail current (−40 mV)
pIC50: −log10 of the molar value.
reported_metric: pIC50

Task: Could you share which pIC50 value was measured for C[C@H]1CCCN1c1ncc(-c2cccc(NC(=O)Cn3cnc4c3c(=O)n(C)c(=O)n4C)n2)cn1 ?
Result: < 5.00

----------
Molecular target: rTRPA1 (Rattus norvegicus, UniProt Q6RI86)
Sequence (Q6RI86 whole entry): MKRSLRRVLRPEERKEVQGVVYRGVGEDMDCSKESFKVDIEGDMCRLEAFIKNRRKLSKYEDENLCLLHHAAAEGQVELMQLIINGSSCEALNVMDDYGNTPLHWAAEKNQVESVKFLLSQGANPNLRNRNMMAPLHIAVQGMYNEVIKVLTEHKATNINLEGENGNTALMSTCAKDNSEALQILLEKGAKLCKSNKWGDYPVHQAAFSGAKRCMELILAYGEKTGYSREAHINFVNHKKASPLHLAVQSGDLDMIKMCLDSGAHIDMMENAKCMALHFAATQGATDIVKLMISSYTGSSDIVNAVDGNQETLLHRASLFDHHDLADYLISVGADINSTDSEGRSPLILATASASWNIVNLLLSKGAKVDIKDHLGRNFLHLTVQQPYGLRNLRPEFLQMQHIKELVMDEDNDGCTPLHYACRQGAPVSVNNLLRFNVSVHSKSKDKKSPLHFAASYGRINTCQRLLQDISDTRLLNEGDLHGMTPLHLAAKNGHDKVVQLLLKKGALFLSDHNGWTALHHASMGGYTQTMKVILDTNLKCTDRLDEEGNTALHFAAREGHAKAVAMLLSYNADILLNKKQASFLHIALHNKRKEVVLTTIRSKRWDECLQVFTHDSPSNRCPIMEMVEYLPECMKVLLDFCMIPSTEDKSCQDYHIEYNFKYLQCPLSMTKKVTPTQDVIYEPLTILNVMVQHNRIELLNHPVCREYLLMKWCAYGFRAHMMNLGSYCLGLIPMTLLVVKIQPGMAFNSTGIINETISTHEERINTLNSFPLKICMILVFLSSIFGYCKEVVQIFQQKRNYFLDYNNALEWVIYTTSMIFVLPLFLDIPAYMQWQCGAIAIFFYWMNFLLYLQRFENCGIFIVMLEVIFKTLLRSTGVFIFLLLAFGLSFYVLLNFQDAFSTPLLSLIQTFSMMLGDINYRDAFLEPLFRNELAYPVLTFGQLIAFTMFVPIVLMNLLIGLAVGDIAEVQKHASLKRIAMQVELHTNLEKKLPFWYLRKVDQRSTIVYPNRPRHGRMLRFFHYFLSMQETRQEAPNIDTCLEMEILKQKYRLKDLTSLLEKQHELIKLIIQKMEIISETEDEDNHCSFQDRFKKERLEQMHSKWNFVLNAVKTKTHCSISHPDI
Assay: Whole-cell patch clamp block of inward current through rTRPA1
Format: cell-based
Details: rTRPA1, Rat; current activation 10 micromolar AITC; read-out: IC50 Inward current
reported_metric: IC50 (nM)
Answers are plain numbers, in nM.

Task: Could you share which IC50 value was measured for C[C@H]1CCCN1c1ncc(-c2cccc(NC(=O)Cn3cnc4c3c(=O)n(C)c(=O)n4C)n2)cn1 [Formula (Ia)] ?
Result: 101
